This listing pairs compounds with measured AC50.
# measurement_target: UniProtKB P07900
# Format: functional, organism-based
The source made the active and inactive calls.

// solved cases for AC50 follow
Per the records, this compound ( `O=C(/C=C/c1ccccc1)CCN1CCCCC1` ) has AC50 equal to 3900 nM (active)

Per the records, this compound ( CCN(C(=O)C1CCCN(c2nc(-c3ccc(OC)cc3)no2)C1)c1ccc(OC)cc1 (centres undefined) ) has AC50 equal to 7810 nM (active)

Per the records, this compound ( `Cc1ccc(C(=O)c2no[n+]([O-])c2C(=O)c2ccc(C)cc2)cc1` ) has AC50 equal to 2370 nM (active)

Proceed to the following item.
Per the records, this compound ( `O=S(=O)(c1c(F)cccc1F)N(CCc1ccc(F)cc1)C[C@@H](O)COCc1ccccc1` ) has AC50 equal to 392 nM (active)
